Assay: MTT cell viability assay, GM16000 lymphocytes
Type: cell-based
Settings: GM16000 lymphocyte cells (non-tumor), human lymphocytes, value (95% CI)
Below, each entry is listed with its recorded CC50 at 72 h.
Only the number, expressed in µM, is required.

Reference set, count: 2
Value of measured CC50 at 72 h for the entry CCN(/N=C/c1ccccc1)C(=O)c1cc(OC)c(OC)c(OC)c1 : 5.13

For record COc1cc(C(=O)N(CCN2CCOCC2)/N=C/c2ccccc2)cc(OC)c1OC the listed CC50 at 72 h is 5.65

# context switch: different compound, same CC50 at 72 h
So, COc1cc(C(=O)N(Cc2ccccc2)/N=C/c2ccccc2)cc(OC)c1OC ? Its CC50 at 72 h was 1.05

----------
Overview of reported CC50 across a group of compounds:
Tested on: PC-3
Test: MTT cell viability assay, PC-3
Type: cell-based
Conditions: Homo sapiens, PC-3; MTT, 72 h; value (95% CI); read-out: CC50 (µM) (CI) PC-3
Method: The cytotoxic activity of compounds 3–13 was determined based on an MTT assay against different human tumor cell lines, using LASSBio-1586 (2), LASSBio-1735 (3), CA-4 (1) and pelitinib as standards (Table 2). To determine the cytotoxic selectivity index, compounds were also evaluated toward human lymphocytes (Table 3). […] The cytotoxicity of the compounds was evaluated by the MTT assay. […]
The answer is to be given in µM; state only the numeric part.

// below: answered compounds
So, COc1cc(C(=O)N(C)/N=C/c2ccccc2)cc(OC)c1OC [LASSBio-1735 (3)] ? Its CC50 was 0.201

Lab note: measured CC50 of C#CCN(/N=C/c1ccccc1)C(=O)c1cc(OC)c(OC)c(OC)c1 [LASSBio-2072 (9)] was 2.25

---
For reference, reported CC50 for COc1cc(C(=O)N/N=C/c2ccccc2)cc(OC)c1OC [LASSBio-1586 (2)] stands at 1.62

What the record says about COc1cc(C(=O)N(CCN2CCOCC2)/N=C/c2ccccc2)cc(OC)c1OC [LASSBio-2122 (12)] : CC50 is 2.4

The measured CC50 associated with CCN(/N=C/c1ccccc1)C(=O)c1cc(OC)c(OC)c(OC)c1 [LASSBio-2071 (4)] reads 1.66

Short answer for C=CCN(/N=C/c1ccccc1)C(=O)c1cc(OC)c(OC)c(OC)c1 [LASSBio-2069 (8)] : CC50 was 0.462

Per the record, CCOC(=O)CN(/N=C/c1ccccc1)C(=O)c1cc(OC)c(OC)c(OC)c1 [LASSBio-2074 (11)] has CC50 of 1.36

----------
Tested on: MCF-7
Test: MTT cell viability assay, MCF-7
Assay type: cell-based, human
Details: MTT, 72 h; value (95% CI); read-out: CC50 (µM) (CI) MCF-7
Description: The cytotoxic activity of compounds 3–13 was determined based on an MTT assay against different human tumor cell lines, using LASSBio-1586 (2), LASSBio-1735 (3), CA-4 (1) and pelitinib as standards (Table 2). To determine the cytotoxic selectivity index, compounds were also evaluated toward human lymphocytes (Table 3). […] The cytotoxicity of the compounds was evaluated by the MTT assay. […]
Quantity Measured: CC50 (µM)
Answer in µM, number only, no unit symbol.

Reported CC50 ( COc1cc(C(=O)N(C)/N=C/c2ccccc2)cc(OC)c1OC ) = 0.276

----------
Test system: H1975
Assay: MTT cell viability assay, H1975
Type: cell-based, human
Details: Homo sapiens, NCI-H1975, 48 h, MTT, 48 h; value (95% CI); read-out: CC50 (µM) (CI) H1975
Here, each record is paired with measured CC50 data.
// units = µM; emit number, no label

Consider the worked cases shown below.
Looking up COc1cc(C(=O)N(C)/N=C/c2ccccc2)cc(OC)c1OC , I found its CC50 recorded as 0.096

Notebook: COc1cc(C(=O)N(Cc2ccccc2)/N=C/c2ccccc2)cc(OC)c1OC , CC50 read as 0.903

Shifting focus to the compound that follows.
Reported CC50 of CCCN(/N=C/c1ccccc1)C(=O)c1cc(OC)c(OC)c(OC)c1 : 1.12

----------
// reported CC50 for each item listed
Test system: PC-3
Experiment: MTT cell viability assay, PC-3
Assay type: cell-based
Conditions: Homo sapiens, PC-3; MTT, 72 h; value (95% CI); read-out: CC50 (µM) (CI) PC-3
Just the number in µM, nothing appended.

Please fill in: CC50 reported for COc1cc(C(=O)N(Cc2ccccc2)/N=C/c2ccccc2)cc(OC)c1OC = 0.361

For CCOc1cc2ncc(C#N)c(Nc3ccc(F)c(Cl)c3)c2cc1NC(=O)/C=C/CN(C)C [Pelitinib, reference compound] the compound record lists CC50 as 2.48

Kindly note the recorded CC50 for CCCN(/N=C/c1ccccc1)C(=O)c1cc(OC)c(OC)c(OC)c1 , which is 0.432

---
The recorded CC50 for entry CCCCN(/N=C/c1ccccc1)C(=O)c1cc(OC)c(OC)c(OC)c1 equals 0.696
